Exercise: for every item that follows, state its recorded IC50.
Test system: human lung cancer A549 cells
Assay: Cell Titre Glo luminescent cell viability assay, A549
Type: cell-based
Settings: 72 h, incubated 3 days, 0.3 nM~10 μM, 0.1% DMSO

Summary for this compound, `CC[C@@]1(O)C(=O)OCc2c1cc1n(c2=O)Cc2cc3cc(O)c(F)cc3nc2-1` : IC50 is < 100 nM

I would be grateful if you could provide IC50 for each of the following entries.
1. CC[C@@]1(O)C(=O)OCc2c1cc1n(c2=O)Cc2cc3cc(OC)c(O)cc3nc2-1
2. CC[C@@]1(O)C(=O)OCc2c1cc1n(c2=O)Cc2cc3cc4c(cc3nc2-1)CCO4
3. CC[C@@]1(O)C(=O)OCc2c1cc1n(c2=O)Cc2cc3c(OC)nccc3nc2-1

1: < 100 nM; 2: > 1000 nM; 3: > 1000 nM

Cited source for all entries: patent US9458170B2
